ASSAYED TARGET: PDIA6 C55 (Q15084) (Homo sapiens, UniProt Q15084)
Sequence (Q15084 20-440): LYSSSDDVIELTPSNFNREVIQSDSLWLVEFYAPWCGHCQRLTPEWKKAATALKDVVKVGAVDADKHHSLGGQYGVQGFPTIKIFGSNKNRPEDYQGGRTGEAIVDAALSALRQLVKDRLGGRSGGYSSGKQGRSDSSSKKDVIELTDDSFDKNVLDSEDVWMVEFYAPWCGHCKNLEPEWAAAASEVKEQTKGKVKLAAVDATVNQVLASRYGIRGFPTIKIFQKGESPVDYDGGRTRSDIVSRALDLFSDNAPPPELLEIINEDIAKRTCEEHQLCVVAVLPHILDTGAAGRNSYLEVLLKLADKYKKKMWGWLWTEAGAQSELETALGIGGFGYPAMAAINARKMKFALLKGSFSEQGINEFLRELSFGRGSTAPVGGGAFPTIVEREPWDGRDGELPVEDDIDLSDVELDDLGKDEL
TEST NAME: Competitive isoTOP-ABPP, cell lysates
Format: binding
CONDITION PARAMETERS: 500 μM, invitro, ramos
Consider the following compounds; for each one, report its isoTOP-ABPP ratio Q15084_C55.

IN: State its isoTOP-ABPP ratio Q15084_C55 for this compound: Cn1cc(S(=O)(=O)N2CCOCC2)cc1C(=O)NC(=O)CCl
OUT: 20.0

IN: Look up and state reported isoTOP-ABPP ratio Q15084_C55 for O=C(CCl)NCCc1c[nH]c2ccccc12
OUT: 1.1

IN: Using the record for O=C(CCl)NC(=O)NC12CC3CC(CC(C3)C1)C2 , state its measured isoTOP-ABPP ratio Q15084_C55.
OUT: 3.1

IN: Give isoTOP-ABPP ratio Q15084_C55 for the following compound: C=CC(=O)N(c1ccccc1)c1ccc(Br)cc1
OUT: 1.1

----------
ASSAYED TARGET: UBE2L3 C86 (P68036) (Homo sapiens, UniProt P68036)
TEST NAME: Competitive isoTOP-ABPP, cell lysates;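 also: Heavy/light ratio DMSO over fragment-treated so higher means more cysteine engagement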
Type: binding
CONDITION PARAMETERS: 500 μm, in-vitro_ramos
Procedure: TEV digests were pressure loaded onto a 250 μm (inner diameter) fused silica capillary column packed with C18 resin (Aqua 5 μm, Phenomenex). The samples were analyzed by multidimensional liquid chromatography tandem mass spectrometry (MudPIT), using an LTQ-Velos Orbitrap mass spectrometer (Thermo Scientific) coupled to an Agilent 1200-series quaternary pump. […]
MEASURED ENDPOINT: isoTOP-ABPP reactivity profile ratio, P68036_C86

IN: Kindly indicate its recorded isoTOP-ABPP reactivity profile ratio, P68036_C86. Item: N#CC(=Cc1ccc(-c2ccccc2Cl)o1)C(N)=O [compound 42]
OUT: 0.8

IN: Give the reported isoTOP-ABPP reactivity profile ratio, P68036_C86 for this molecule. COc1cc(NC(=O)CCl)cc(OC)c1 [compound 43]
OUT: 1.7

IN: Tell me isoTOP-ABPP reactivity profile ratio, P68036_C86 reported for O=C(CCl)Nc1ccc(-c2ccccc2)cc1 [compound 52]
OUT: 1.3

IN: Annotate the molecule O=C(CCl)Nc1cccc2ncccc12 [compound 51] with its measured isoTOP-ABPP reactivity profile ratio, P68036_C86.
OUT: 1.0

IN: Fill in reported isoTOP-ABPP reactivity profile ratio, P68036_C86 for this entry: C=CC(=O)N1CCC(Cc2ccccc2)CC1 [compound 53]
OUT: 1.0

----------
ASSAYED TARGET: PCK2 C306 (Q16822) (Homo sapiens, UniProt Q16822)
TEST NAME: Competitive isoTOP-ABPP, cell lysates
Type: binding
CONDITION PARAMETERS: 500 μm in-vitro ramos_231
Quick rule: isoTOP-ABPP ratio (reactivity profile), Q16822_C306 of at least 1 means 1, below that means 0.

IN: Reported isoTOP-ABPP ratio (reactivity profile), Q16822_C306 reaches at least 1 for N#C/C(=C\c1cc(C(F)(F)F)cc(C(F)(F)F)c1)C(N)=O ?
OUT: 1

IN: Answer whether isoTOP-ABPP ratio (reactivity profile), Q16822_C306 of CC(Cl)C(=O)Nc1cc(C(F)(F)F)cc(C(F)(F)F)c1 (stereo not drawn) is greater than or equal to 1.
OUT: 0

IN: Test whether the compound O=C(CCl)N1CCN(CC(=O)N2CCOCC2)CC1 records isoTOP-ABPP ratio (reactivity profile), Q16822_C306 of 1 or higher.
OUT: 1

IN: isoTOP-ABPP ratio (reactivity profile), Q16822_C306 >= 1 for O=C(CCl)N1CCC(C(O)(c2ccccc2)c2ccccc2)CC1 ?
OUT: 1

IN: Item COc1ccccc1OCCNC(=O)CCl with isoTOP-ABPP ratio (reactivity profile), Q16822_C306 of 1 or above?
OUT: 1

IN: Record O=C(CCl)NC12CC3CC(CC(C3)C1)C2 ; criterion: isoTOP-ABPP ratio (reactivity profile), Q16822_C306 no lower than 1. Met?
OUT: 1

----------
Consider the following molecules; for each one, report its isoTOP-ABPP reactivity ratio, P50851_C2675.
ASSAYED TARGET: LRBA C2675 (P50851) (Homo sapiens, UniProt P50851)
TEST NAME: Competitive isoTOP-ABPP, cell lysates
Assay type: binding
CONDITION PARAMETERS: 500 μm, in-vitro_ramos
Response field accepts a number only; no unit should be typed.

IN: Entry C=CC(=O)N1CCC(c2noc3ccc(F)cc23)CC1 needs its isoTOP-ABPP reactivity ratio, P50851_C2675 filled in; supply it.
OUT: 1.0

IN: Using the record for O=C(CCl)N(Cc1ccc(F)cc1)C12CC3CC(CC(C3)C1)C2 , state its measured isoTOP-ABPP reactivity ratio, P50851_C2675.
OUT: 1.1

IN: Give recorded isoTOP-ABPP reactivity ratio, P50851_C2675. CC(C)(C)c1cc(NC(=O)CCl)on1
OUT: 1.1

IN: Please indicate isoTOP-ABPP reactivity ratio, P50851_C2675 recorded for O=C(CCl)Nc1ccccc1C1CCCCCC1
OUT: 1.0

----------
ASSAYED TARGET: cysteines in MDA-MB-231 and Ramos cells (Homo sapiens, UniProt P49588)
TEST NAME: Competitive isoTOP-ABPP in situ (fragment-treated cells)
Format: cell-based
CONDITION PARAMETERS: 200 μM, insitu, 231
MEASURED ENDPOINT: isoTOP-ABPP ratio P49588_C773

IN: Specify isoTOP-ABPP ratio P49588_C773 for O=C(CCl)NC12CC3CC(CC(C3)C1)C2 [compound 21] and stop.
OUT: 1.1

IN: Provide one value: measured isoTOP-ABPP ratio P49588_C773 of CC(C)CCOCCNC(=O)CCl [compound 27]
OUT: 0.6

IN: Indicate its recorded isoTOP-ABPP ratio P49588_C773; the compound in question is O=C(CCl)N1CCN(S(=O)(=O)c2ccccc2F)CC1 [compound 10]
OUT: 2.1

IN: For O=C(CCl)NC(=O)NC12CC3CC(CC(C3)C1)C2 [compound 12] , write its isoTOP-ABPP ratio P49588_C773.
OUT: 0.9

IN: Look up and report measured isoTOP-ABPP ratio P49588_C773 for this entry: O=C(CCl)NCCc1c[nH]c2ccccc12 [compound 13]
OUT: 0.8

IN: Provide one value: measured isoTOP-ABPP ratio P49588_C773 of Cc1ccc(C=C(C#N)C(=O)NCCN2CCOCC2)cc1 [compound 41]
OUT: 0.7

IN: Quickly give me recorded isoTOP-ABPP ratio P49588_C773 for C=CC(=O)Nc1cc(F)c(N2CCN(C(=O)OC(C)(C)C)CC2)c(F)c1 [compound 38]
OUT: 0.7

IN: // Input: CC1CCc2ccccc2N1C(=O)CCl (centres unmarked) [compound 45] . Output its isoTOP-ABPP ratio P49588_C773 only.
OUT: 10.1

----------
ASSAYED TARGET: PDIA6 C55 (Q15084) (Homo sapiens, UniProt Q15084)
TEST NAME: Competitive isoTOP-ABPP, cell lysates
Format: binding
CONDITION PARAMETERS: 500 μm, in-vitro_ramos_231
MEASURED ENDPOINT: isoTOP-ABPP reactivity ratio, Q15084_C55
The response must contain the number and no unit.

IN: State its isoTOP-ABPP reactivity ratio, Q15084_C55: O=C(CCl)Nc1ccccc1C1CCCCCC1
OUT: 0.9

IN: Please give measured isoTOP-ABPP reactivity ratio, Q15084_C55 of the following entry: C=CC(=O)Nc1cc(F)c(N2CCN(C(=O)OC(C)(C)C)CC2)c(F)c1
OUT: 1.0

IN: Return isoTOP-ABPP reactivity ratio, Q15084_C55 for the following compound: CC(C)(C)c1cc(NC(=O)CCl)on1
OUT: 20.0

IN: Assign isoTOP-ABPP reactivity ratio, Q15084_C55 to the following record: COC(=O)C1Cc2ccccc2CN1C(=O)CCl (centres unmarked)
OUT: 3.9

IN: Please report the measured isoTOP-ABPP reactivity ratio, Q15084_C55 for Cc1ccc(C=C(C#N)C(=O)NCCN2CCOCC2)cc1
OUT: 0.9

IN: Identify the reported isoTOP-ABPP reactivity ratio, Q15084_C55 for the following entry. C=CC(=O)Nc1cc(C)c(Br)cc1C
OUT: 0.8

IN: Provide measured isoTOP-ABPP reactivity ratio, Q15084_C55 value, entry: O=C(CCl)N(Cc1ccc(F)cc1)C12CC3CC(CC(C3)C1)C2
OUT: 0.9

IN: Consider the compound C=CC(=O)N(Cc1cccnc1)c1cc(C(F)(F)F)cc(C(F)(F)F)c1 . State its measured isoTOP-ABPP reactivity ratio, Q15084_C55.
OUT: 1.2
